Recorded pIC50 for the following molecules
molecular target: glutamate binding site on the kainate/AMPA receptor; assay: Inhibition of [3H]-AMPA binding to the glutamate binding site on the kainate/AMPA receptor, rat brain membranes; details: 10 nM ^3 H-AMPA; membrane preparations from rat brain; unspecific binding with 1 mM glutamate; filtration
pIC50: −log10 of the molar value. Structures can show the parent of a compound that is named as a salt.

molecule	pIC50
O=c1[nH]nc2c3ccc([N+](=O)[O-])cc3[nH]c(=O)n12	6.61
O=c1[nH][nH]c2c1c(O)nc1cc(Cl)c(Cl)cc12	5.86
O=c1[nH]nc2c3cc(N4CCOCC4)c([N+](=O)[O-])cc3[nH]c(=O)n12	6.53
O=c1[nH]nc2c3ccc(I)cc3[nH]c(=O)n12	5.83
O=c1[nH]nc2c3ccc(Br)cc3[nH]c(=O)n12	5.93
O=c1[nH]nc2c3ccc(Cl)cc3[nH]c(=O)n12	5.76
Nc1cc2c(cc1Cl)[nH]c(=O)n1c(=O)[nH]nc21 [Example 29, hydrochloride]	5.07
O=c1[nH]oc2c1c(=O)[nH]c1cc(Cl)ccc12	7.70
COc1ccc2c(c1)[nH]c(=O)n1c(=O)[nH]nc21	5.63

###

biological target: glycine binding site on the NMDA receptor (Rattus norvegicus, UniProt P35439); construct: membrane preparations from rat brain; from tissue; host or cells: rat brain membranes; assay: Inhibition of [3H]-DCKA (3H-5,7-dichlorokynurenic acid) binding to the glycine binding site on the NMDA receptor, rat brain membranes; conditions: 20 nM ^3 H-DCKA; membrane preparations from rat brain; unspecific binding with 1 mM glycine; centrifugation; read-out: [^3 H]-DCKA IC50
pIC50: −log10 of the molar value.
In this section, each of the compounds is paired with its reported pIC50.
measurementName: pIC50

structureSmiles	reported
O=c1[nH]oc2c1c(=O)[nH]c1cc([N+](=O)[O-])ccc12	6.34
O=c1nc2c3cc(-n4ccnc4)c([N+](=O)[O-])cc3[nH]c(=O)n2[nH]1	5.59
O=c1[nH]nc2c3cc(N4CCCC4)c([N+](=O)[O-])cc3[nH]c(=O)n12	5.44
O=c1[nH]nc2c3ccc([N+](=O)[O-])cc3[nH]c(=O)n12	6.16

###

target: glycine binding site on the NMDA receptor (Rattus norvegicus, UniProt P35439); construct: membrane preparations from rat brain; from tissue; host or cells: rat brain membranes; assay: Inhibition of [3H]-DCKA (3H-5,7-dichlorokynurenic acid) binding to the glycine binding site on the NMDA receptor, rat brain membranes; details: 20 nM ^3 H-DCKA; membrane preparations from rat brain; unspecific binding with 1 mM glycine; centrifugation; read-out: [^3 H]-DCKA IC50
pIC50: −log10 of the molar value. Where a name gives a salt, the structure may show the parent alone.
measurementName: pIC50

compound	reported
O=c1[nH]nc2c3cc(Cl)c([N+](=O)[O-])cc3[nH]c(=O)n12	7.30
O=c1[nH]nc2c3ccc(C(F)(F)F)cc3[nH]c(=O)n12	6.42
O=c1[nH]oc2c1c(=O)[nH]c1cc(Cl)ccc12	6.58
CN(C)c1cc2c(cc1[N+](=O)[O-])[nH]c(=O)n1c(=O)[nH]nc21	6.47
O=c1[nH]nc2c3cc([N+](=O)[O-])c(Cl)cc3[nH]c(=O)n12	6.44
O=c1[nH][nH]c2c1c(O)nc1cc(Cl)c(Cl)cc12	7.14
O=c1[nH]nc2c3cc(Cl)c(Cl)cc3[nH]c(=O)n12	7.51
O=c1[nH]nc2c3cc(F)c([N+](=O)[O-])cc3[nH]c(=O)n12	6.44
O=c1[nH]nc2c3cc(Br)c([N+](=O)[O-])cc3[nH]c(=O)n12	7.17
O=c1[nH]nc2c3ccc(Cl)cc3[nH]c(=O)n12	6.36
O=c1[nH]nc2c3ccc(F)cc3[nH]c(=O)n12	6.15
COc1ccc2c(c1)[nH]c(=O)n1c(=O)[nH]nc21	6.74
O=c1[nH]nc2c3ccc(I)cc3[nH]c(=O)n12	6.72
O=c1nc2c3cc(Cl)c([N+](=O)[O-])cc3[nH]c(=O)n2[nH]1 [Example 26, sodium salt]	7.37
